- Assayed system: human TLR8 (Homo sapiens)
- Sequence (Q9NR97 27-1041): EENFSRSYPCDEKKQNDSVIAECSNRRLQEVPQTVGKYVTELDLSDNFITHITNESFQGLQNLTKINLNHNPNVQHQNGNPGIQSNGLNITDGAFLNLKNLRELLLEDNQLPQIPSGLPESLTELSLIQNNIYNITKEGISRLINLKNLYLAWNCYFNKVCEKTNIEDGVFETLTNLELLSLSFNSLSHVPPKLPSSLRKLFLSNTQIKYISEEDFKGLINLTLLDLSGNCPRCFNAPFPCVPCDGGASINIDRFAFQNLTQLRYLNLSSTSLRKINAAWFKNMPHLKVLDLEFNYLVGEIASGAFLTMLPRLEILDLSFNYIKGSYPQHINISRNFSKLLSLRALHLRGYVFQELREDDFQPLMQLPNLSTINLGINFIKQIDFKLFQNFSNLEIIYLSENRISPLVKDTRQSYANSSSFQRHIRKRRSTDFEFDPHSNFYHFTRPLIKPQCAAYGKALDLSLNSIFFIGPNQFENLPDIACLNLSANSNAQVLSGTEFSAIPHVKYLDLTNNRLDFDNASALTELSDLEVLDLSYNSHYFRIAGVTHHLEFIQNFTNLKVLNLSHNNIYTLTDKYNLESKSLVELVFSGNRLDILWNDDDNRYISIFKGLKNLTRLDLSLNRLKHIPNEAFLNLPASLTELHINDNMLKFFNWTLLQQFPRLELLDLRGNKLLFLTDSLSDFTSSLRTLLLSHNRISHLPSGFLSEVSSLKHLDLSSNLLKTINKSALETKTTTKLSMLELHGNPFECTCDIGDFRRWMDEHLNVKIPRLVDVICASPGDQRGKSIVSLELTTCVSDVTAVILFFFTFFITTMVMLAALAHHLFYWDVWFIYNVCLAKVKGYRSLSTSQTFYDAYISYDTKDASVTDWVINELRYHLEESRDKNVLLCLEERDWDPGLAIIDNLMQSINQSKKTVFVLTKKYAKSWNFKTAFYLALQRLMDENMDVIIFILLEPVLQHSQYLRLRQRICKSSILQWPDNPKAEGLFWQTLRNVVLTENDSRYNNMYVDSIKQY
- Protocol description: TLR8 inhibition reporter assay (HEK-Blue SEAP reporter, R848 stimulation)
- Conditions used: HEK-Blue cells overexpressing human TLR8, SEAP reporter, R848 15.9 μM, 22 hour incubation
Property: IC50 (nM)

INSERT INTO measurements (molecule, property, measurement_unit, readout_number) VALUES
  ('Cc1cc(-c2[nH]c3ccc(C4CCN(C(=O)[C@H]5C[C@H](O)CN5)CC4)cc3c2C(C)C)cn(C)c1=O [Example 292]', 'IC50', 'nM', 40.7),
  ('Cc1nc(-c2[nH]c3ccc(C4CCN(C5CCCOC5)CC4)cc3c2C(C)C)cn(C)c1=O (stereo not shown)', 'IC50', 'nM', 30.1),
  ('Cc1cc(-c2[nH]c3ccc(C4CCN(CC(=O)N5CC[C@H](O)C5)CC4)cc3c2C(C)C)cn(C)c1=O', 'IC50', 'nM', 14.9),
  ('Cc1cc(-c2[nH]c3ccc(C4CCN(C(=O)[C@H]5C[C@H](O)CN5)CC4)cc3c2C(C)C)cn(C)c1=O [Example 288]', 'IC50', 'nM', 61.7),
  ('Cc1c(-c2[nH]c3ccc(C4CCNCC4)cc3c2C(C)C)cn(C)c(=O)c1-c1cccnc1', 'IC50', 'nM', 75.1),
  ('Cc1cc(-c2[nH]c3ccc(C4CCN(C(=O)CN5CCCC5=O)CC4)cc3c2C(C)C)cn(C)c1=O', 'IC50', 'nM', 42.5),
  ('CCCN1CCC(c2ccc3[nH]c(-c4cc(-c5cnc(OC)nc5)c(=O)n(C)c4)c(C(C)C)c3c2)CC1', 'IC50', 'nM', 9.6);

###

- Assayed system: human TLR7 (Homo sapiens, UniProt Q9NYK1)
- Construct: host or cells: HEK-Blue cells
- Sequence (Q9NYK1 27-1049): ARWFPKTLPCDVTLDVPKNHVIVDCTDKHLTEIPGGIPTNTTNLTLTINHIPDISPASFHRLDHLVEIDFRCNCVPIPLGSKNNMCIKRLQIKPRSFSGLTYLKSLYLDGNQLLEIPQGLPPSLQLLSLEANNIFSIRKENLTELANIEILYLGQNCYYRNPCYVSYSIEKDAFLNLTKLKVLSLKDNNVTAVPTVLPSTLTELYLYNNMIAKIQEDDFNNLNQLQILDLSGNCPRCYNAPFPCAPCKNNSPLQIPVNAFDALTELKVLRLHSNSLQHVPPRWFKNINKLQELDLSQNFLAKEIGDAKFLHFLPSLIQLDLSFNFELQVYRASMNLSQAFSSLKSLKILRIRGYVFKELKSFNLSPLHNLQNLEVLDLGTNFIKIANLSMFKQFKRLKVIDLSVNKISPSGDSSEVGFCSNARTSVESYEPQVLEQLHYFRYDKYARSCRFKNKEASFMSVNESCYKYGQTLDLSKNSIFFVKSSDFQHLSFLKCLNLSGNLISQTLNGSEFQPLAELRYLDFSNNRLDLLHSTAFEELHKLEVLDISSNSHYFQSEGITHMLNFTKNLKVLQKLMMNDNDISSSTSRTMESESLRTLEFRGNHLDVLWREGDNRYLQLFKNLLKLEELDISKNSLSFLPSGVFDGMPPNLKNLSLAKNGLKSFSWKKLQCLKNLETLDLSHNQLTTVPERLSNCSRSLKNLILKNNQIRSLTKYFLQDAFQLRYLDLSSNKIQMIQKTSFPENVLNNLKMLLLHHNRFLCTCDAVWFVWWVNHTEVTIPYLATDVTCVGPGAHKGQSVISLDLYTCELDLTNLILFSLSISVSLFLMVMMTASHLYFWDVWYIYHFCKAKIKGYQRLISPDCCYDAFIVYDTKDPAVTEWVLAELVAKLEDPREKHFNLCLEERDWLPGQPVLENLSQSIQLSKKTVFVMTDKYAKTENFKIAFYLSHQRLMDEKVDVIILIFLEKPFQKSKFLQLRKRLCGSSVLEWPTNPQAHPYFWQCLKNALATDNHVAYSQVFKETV
- Protocol description: TLR7 inhibition reporter assay (HEK-Blue SEAP reporter, gardiquimod stimulation)
- Format: cell-based
- Conditions used: HEK-Blue cells overexpressing human TLR7, SEAP reporter, gardiquimod 7.5 μM, 22 hour incubation
Property: IC50 (nM)

INSERT INTO assay_data (molecule, assayed_system, readout_number) VALUES
  ('Cc1c(-c2[nH]c3ccc(C4CCN(CC(=O)N(C)C)CC4)cc3c2C(C)C)nn(C)c(=O)c1C', 'human TLR7 (Homo sapiens, UniProt Q9NYK1)', 290),
  ('CNC(=O)CN1CCC(c2ccc3[nH]c(-c4cc(C#N)c(=O)n(C)c4C)c(C(C)C)c3c2)CC1', 'human TLR7 (Homo sapiens, UniProt Q9NYK1)', 59.9),
  ('Cc1cc(-c2[nH]c3ccc(C4CCN(C(=O)[C@@H]5C[C@@H](O)CN5)CC4)cc3c2C(C)C)cn(C)c1=O [Example 290]', 'human TLR7 (Homo sapiens, UniProt Q9NYK1)', 8.3),
  ('Cc1cc(-c2[nH]c3ccc(C4CCN(Cc5ccc(OC(F)(F)F)cc5)CC4)cc3c2C(C)C)cn(C)c1=O', 'human TLR7 (Homo sapiens, UniProt Q9NYK1)', 123);
